Experimental Target: Peptidyl-prolyl cis-trans isomerase A (cyclophilin A, hCyp-18) (Homo sapiens) (UniProt P62937)
Sequence (P62937 whole entry, looked up): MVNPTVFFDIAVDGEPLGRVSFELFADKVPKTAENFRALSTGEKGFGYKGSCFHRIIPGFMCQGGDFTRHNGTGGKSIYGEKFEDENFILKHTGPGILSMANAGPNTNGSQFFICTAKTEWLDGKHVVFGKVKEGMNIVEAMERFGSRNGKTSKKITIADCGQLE
Starred links: 1 amine or outer side, 2 acyl side, 3 side chain; linkers in the order of their positions; H or OH if unused. Residues, ends and D or L forms follow the SMILES beside them. *: point of attachment. NHCH2CHPh2 = c1ccc(C(CN*)c2ccccc2)cc1; pNA = O=[N+]([O-])c1ccc(N*)cc1; NHPhenethyl = c1ccc(CCN*)cc1; Suc = O=C(CCC(=O)[*:2])[*:1]
Endpoint Label: pIC50
Recall that pIC50 is obtained by taking minus log10 of the concentration measured in molar.

Qu. State the recorded pIC50 for this entry: `CC[C@@H]1/C=C(\C)C[C@H](C)C[C@H](OC)[C@H]2O[C@@](O)(C(=O)C(=O)N3CCCC[C@H]3C(=O)O[C@H](/C(C)=C/[C@@H]3CC[C@@H](O)[C@H](OC)C3)[C@H](C)[C@@H](O)CC1=O)[C@H](C)C[C@@H]2OC`
Ans. 5.10

Qu. State the recorded pIC50 for this entry: CC[C@H](C)[C@H](NC(=O)[C@@H]1CCCN1C(=O)CNC(=O)[C@H](C)NC(=O)[C@H](Cc1cnc[nH]1)NC(=O)[C@@H](NC(C)=O)C(C)C)C(=O)NCCc1ccccc1 (Ac-VHAGPI-NHPhenethyl)
Ans. 3.49

Qu. State the recorded pIC50 for this entry: C[C@H](NC(=O)CCC(=O)O)C(=O)N[C@@H](C)C(=O)N1CCC[C@H]1C(=O)N[C@@H](Cc1ccccc1)C(=O)Nc1ccc([N+](=O)[O-])cc1 (Suc-AAPF-pNA)
Ans. 3.07

Qu. State the recorded pIC50 for this entry: CC[C@H](C)[C@H](NC(=O)[C@@H]1CCCN1C(=O)CNC(=O)[C@H](C)NC(=O)[C@H](Cc1cnc[nH]1)NC(=O)[C@@H](NC(C)=O)C(C)C)C(=O)NCC(c1ccccc1)c1ccccc1 (Ac-VHAGPI-NHCH2CHPh2)
Ans. 3.44

Reference for the values: BindingDB's records for doi:10.1021/jm9903139
